Cited source: paper doi:10.1101/2025.09.29.679228

# targetDesc: EphA2 ICRΔSAM, wildtype, phosphorylated (human)
# Sequence (P29317 899-973, stated change not applied): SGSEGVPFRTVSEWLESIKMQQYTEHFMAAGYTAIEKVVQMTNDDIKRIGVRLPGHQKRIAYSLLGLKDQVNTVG
# experimentDescription: MST
observedProperty: Kd (µM)

binder="SHIP2 SAM domain (isolated) (domain or fragment) GMSAWLRAIGLERYEEGLVHNGWDDLEFLSDITEEDLEEAGVQDPAHKRLLLDTLQLSK" number=7.5
